Test system: Plasmodium falciparum NF54 stage IV/V gametocytes
Experiment: % inhibition of gametocyte viability (PrestoBlue); higher = more inhibition
Conditions: 1 µM; 48 h
Collected % inhibition of gametocyte viability values appear next to each entry.

[
  {
    "Compound": "COc1ccc(CNC(=O)C(NS(=O)(=O)c2ccc3nc(C)sc3c2)C(C)C)cc1 (centres undefined)",
    "Comparator": "=",
    "% inhibition of gametocyte viability, %": 48.7
  },
  {
    "Compound": "Cc1c(N)cccc1Cn1ccc(OCCc2cccs2)cc1=O",
    "Comparator": "<",
    "% inhibition of gametocyte viability, %": 0
  },
  {
    "Compound": "Cc1cc(CCOc2c(C)cc(-c3nnn(C)n3)cc2C)on1",
    "Comparator": "=",
    "% inhibition of gametocyte viability, %": 26.4
  },
  {
    "Compound": "O=C(O)c1cc(-c2ccccc2)nc2ccccc12",
    "Comparator": "<",
    "% inhibition of gametocyte viability, %": 0
  },
  {
    "Compound": "O=C(NCc1ncc(C(F)(F)F)cc1Cl)c1c(Cl)cccc1Cl",
    "Comparator": "<",
    "% inhibition of gametocyte viability, %": 0
  },
  {
    "Compound": "CN(C/C=C/C#CC(C)(C)C)Cc1cccc2ccccc12",
    "Comparator": "<",
    "% inhibition of gametocyte viability, %": 0
  },
  {
    "Compound": "CC1(C)C[C@H]1C(=O)N/C(=C\\CCCCSC[C@@H](N)C(=O)O)C(=O)O",
    "Comparator": "=",
    "% inhibition of gametocyte viability, %": 25.1
  },
  {
    "Compound": "Cc1ccc(NC(=O)c2ccc(CN3CCN(C)CC3)cc2)cc1Nc1nccc(-c2cccnc2)n1",
    "Comparator": "<",
    "% inhibition of gametocyte viability, %": 0
  },
  {
    "Compound": "CN1CCN(c2ccc3[nH]c(-c4ccc5[nH]c(-c6ccc(O)cc6)nc5c4)nc3c2)CC1",
    "Comparator": "<",
    "% inhibition of gametocyte viability, %": 0
  },
  {
    "Compound": "c1cc(CN2CCCNCCNCCCNCC2)ccc1CN1CCCNCCNCCCNCC1",
    "Comparator": "=",
    "% inhibition of gametocyte viability, %": 7.81
  },
  {
    "Compound": "Cc1cc(O)c2c(c1)C(=O)c1c(I)c(O)c(I)c(O)c1C2=O",
    "Comparator": "<",
    "% inhibition of gametocyte viability, %": 0
  },
  {
    "Compound": "Oc1ccc2[nH]c(-c3ccccc3)nc2c1",
    "Comparator": "=",
    "% inhibition of gametocyte viability, %": 10.1
  },
  {
    "Compound": "CCOCc1nc2c(N)nc3ccccc3c2n1CC(C)(C)O",
    "Comparator": "=",
    "% inhibition of gametocyte viability, %": 8.02
  },
  {
    "Compound": "COc1ccc(-n2cnc3cc(NCc4ccco4)ccc32)cc1",
    "Comparator": "<",
    "% inhibition of gametocyte viability, %": 0
  },
  {
    "Compound": "N[C@H]1CCC[C@H]1C(=O)O",
    "Comparator": "=",
    "% inhibition of gametocyte viability, %": 35.6
  },
  {
    "Compound": "CC(C)N(c1cc(-c2ccccc2)sc1C(=O)O)C(=O)[C@H]1CC[C@H](C)CC1",
    "Comparator": "=",
    "% inhibition of gametocyte viability, %": 18.3
  },
  {
    "Compound": "Cc1onc(-c2ccccc2Cl)c1C(=O)N[C@@H]1C(=O)N2[C@@H]1SC(C)(C)[C@@H]2C(=O)O",
    "Comparator": "<",
    "% inhibition of gametocyte viability, %": 0
  },
  {
    "Compound": "OCCC#Cc1nc(-c2ccc(F)cc2)c(-c2ccncc2)n1CCCc1ccccc1",
    "Comparator": "<",
    "% inhibition of gametocyte viability, %": 0
  },
  {
    "Compound": "O=c1cc(NCCCN[C@@H]2CCOc3c(Br)cc(Br)cc32)[nH]c2ccsc12",
    "Comparator": "=",
    "% inhibition of gametocyte viability, %": 17.8
  }
]

====

Collected % inhibition of gametocyte viability values appear next to each entry.
Test system: Plasmodium falciparum NF54 stage IV/V gametocytes
Assay: % inhibition of gametocyte viability (luciferase reporter); higher = more inhibition
Conditions: 1 µM; 48 h
Endpoint name: % inhibition of gametocyte viability

[
  {
    "Compound": "CN(Cc1ccc(C(C)(C)C)cc1)Cc1cccc2ccccc12",
    "Assay result": "< 0%"
  },
  {
    "Compound": "O=C1NC(=S)N/C1=C\\c1cc(Br)cc(Br)c1O",
    "Assay result": "< 0%"
  },
  {
    "Compound": "Clc1cccc(-c2nnc(-c3ccccc3)o2)c1",
    "Assay result": "< 0%"
  },
  {
    "Compound": "CCc1cc(Nc2cc(=O)n(CCN3CCN(C(=O)c4ccccc4)CC3)c(=O)[nH]2)ccc1C",
    "Assay result": "< 0%"
  },
  {
    "Compound": "N[C@@H]1CN(c2c(F)cc3c(=O)c(C(=O)O)cn([C@@H]4C[C@@H]4F)c3c2Cl)CC12CC2",
    "Assay result": "0.138%"
  },
  {
    "Compound": "Cc1cccc(C)c1C(=O)Nc1nc(-c2ccccn2)cc2ccccc12",
    "Assay result": "< 0%"
  },
  {
    "Compound": "C[C@H]1CC[C@@]2(O)C(C)(C)[C@@H]3CC[C@@]2(C)[C@H]1C3",
    "Assay result": "< 0%"
  },
  {
    "Compound": "CCOC(=O)Nc1cc(NC(C)CC(C)CN(CC)CC)c2nc(-c3ccccc3)c(-c3ccccc3)nc2n1 (centres undefined)",
    "Assay result": "< 0%"
  },
  {
    "Compound": "C[C@@H]1O[C@@H]1P(=O)(O)O",
    "Assay result": "< 0%"
  },
  {
    "Compound": "O=C(O)[C@H]1C2CCC(CC2)[C@@H]1Nc1nc(-c2c[nH]c3ncc(F)cc23)ncc1F",
    "Assay result": "< 0%"
  },
  {
    "Compound": "C=C[C@]1(C)C[C@@H](OC(=O)CS[C@@H]2C[C@H]3CC[C@@H](C2)N3C)[C@]2(C)[C@H](C)CC[C@]3(CCC(=O)[C@H]32)[C@@H](C)[C@@H]1O",
    "Assay result": "< 0%"
  },
  {
    "Compound": "CC[N+]1(C/C2=C/CCCCCC2)CCC(NC(=O)C2c3cc(Cl)ccc3Oc3ccc(Cl)cc32)CC1 (centres undefined)",
    "Assay result": "7.3%"
  },
  {
    "Compound": "O=C(NO)C1(CS(=O)(=O)c2ccc(Oc3ccc(Cl)cc3)cc2)CCOCC1",
    "Assay result": "2.48%"
  },
  {
    "Compound": "CC1(C)C[C@H]1C(=O)N/C(=C\\CCCCSC[C@@H](N)C(=O)O)C(=O)O",
    "Assay result": "< 0%"
  },
  {
    "Compound": "C[C@H]1[C@@H](c2cccc(C(F)(F)F)c2)OC(=O)N1C(=O)NCc1cncc2ccccc12",
    "Assay result": "< 0%"
  },
  {
    "Compound": "COc1c(F)c(F)cc2c(=O)c(C(=O)O)cn(C3CC3)c12",
    "Assay result": "< 0%"
  },
  {
    "Compound": "COc1ccc(OCc2ccc(COc3c(Cl)cccc3Cl)cc2)c(Cl)c1",
    "Assay result": "< 0%"
  },
  {
    "Compound": "CCOc1ccc(C(=O)NCCc2ccccc2)cc1",
    "Assay result": "< 0%"
  },
  {
    "Compound": "Cc1nc2ccc(Oc3ccccc3)cc2c2c1CCN2CCc1ccccc1",
    "Assay result": "33%"
  }
]

====

Tested on: CHO
Experiment: % viability of CHO cells (MTT); higher = less toxic
Settings: 20 µM; 48 h
Endpoint name: % viability of CHO cells (%)

[
  {
    "Given smiles": "Nc1cccc(-c2nc(N)nc(NC3Cc4ccccc4C3)n2)c1",
    "Assay result": 75.1
  },
  {
    "Given smiles": "O=c1cc(OCc2ccccc2)ccn1Cc1ccccc1",
    "Assay result": 98.7
  },
  {
    "Given smiles": "N[C@H](CCC(=O)N[C@@H](Cc1c[nH]c2ccccc12)C(=O)O)C(=O)O",
    "Assay result": 57.6
  },
  {
    "Given smiles": "COc1cc(NS(=O)(=O)c2ccc(C)cc2)c2ncccc2c1",
    "Assay result": 94.1
  },
  {
    "Given smiles": "O=C(NNC(=S)Nc1ccc(Cl)cc1)c1ccncc1",
    "Assay result": 76.6
  },
  {
    "Given smiles": "Nc1nc2c(ncn2/C=C2/CC2(CO)CO)c(=O)[nH]1",
    "Assay result": 5.45
  }
]
